test system: OVCAR-8 ovarian; assay: NCI tumour cell line growth inhibition, 48 h
assayEndpoint: TGI

Note TGI for the compound shown: "CCN1CCN(c2nc3ccccc3nc2C(=O)c2ccc(OC)cc2)CC1" > 100 µM

Supply TGI value. Item: "C=C1[C@H](OC(=O)C(C)C)[C@@H](OC(C)=O)[C@@H](OC(C)=O)C(C)(C)[C@@H]2O[C@H]2[C@@H](C)C(=O)[C@@]2(OC(C)=O)C[C@@](C)(OC(C)=O)[C@H](OC(C)=O)[C@@H]2[C@H]1OC(C)=O" > 100 µM

Please give measured TGI of the following entry: "O=C(Nc1cc2c(=O)[nH]c3ccccc3c2oc1=O)c1cnccn1" > 100 µM

For "Cn1c2c(c3ccccc31)CCN1OCC=C[C@@H](C(=O)O)[C@@H]21" , write its TGI. > 100 µM

Report measured TGI; entry is "O=C(CCCCCCCn1cc(-c2cccnc2)nn1)Nc1ccccc1-c1ccccc1" 27.9 µM

Give the reported value of TGI for this record: "NC(=NCCCC1(c2ccccc2)CCCC1)Nc1ccc(Cl)cc1" 3.8 µM

For "COc1ccc(C2=Nn3c(nc4sc(C)c(C)c4c3=O)SC2)cc1" , write its TGI. > 100 µM

# return recorded TGI for input CCOC(=O)N1CC2(C)C=CC1C(C(=O)OC)C2 (centres undefined) > 100 µM

Specify TGI for "COc1cc2c(c(OC)c1O)-c1ccc(OC)c(=O)cc1[C@@H](NC(=O)C(F)(F)F)CC2" and stop. > 100 µM

Look up TGI of "COC(=O)[C@H]1C(=O)[C@@]2(C)[C@H]([C@H](OC(=O)c3ccccc3)[C@]3(O)C[C@H](OC(=O)[C@H](O)[C@@H](NC(=O)c4ccc(F)cc4)c4ccccc4)C(C)=C1C3(C)C)[C@]1(OC(C)=O)CO[C@@H]1C[C@@H]2O" and report it. > 25 µM

Quick one: give measured TGI for "Cc1[nH]n(C2=NCCN2)c(=O)c1C" > 100 µM

Identify measured TGI corresponding to "O=C(N/N=C/c1ccccc1O)C(O)(c1ccccc1)c1ccccc1" > 100 µM

For "CC(/C=C/C(=O)c1sc(-n2nc(-c3ccccc3)cc2-c2ccccc2)nc1C)=C\c1ccccc1" , write its TGI. > 100 µM

State, in one line, measured TGI of CCCCCCCCCCCCNC(=O)[C@H]1CSC(c2cc3ccccc3s2)N1 (some centres undefined) 8.53 µM

###

system: HOP-62 NSCLC; experiment: NCI tumour cell line growth inhibition, 48 h; in the data active means GI50 below about 0.43 µM; inactive means the rest
Select the correct class. Options are active, inactive and nothing else.

Outcome? "Fc1ccc(-c2nn3c(CNc4ccccc4)nnc3s2)cc1" inactive

Each compound tested received a call. Report the one for "C/C1=C/C(=O)O[C@@H]2C[C@@H](CC[C@H](C)/C=C\C=C\CC1)O[C@@](O)([C@@H]1CSC(=O)N1CO)C2" . active

Returns: the outcome recorded for "COC(=O)[C@H]1C(=O)[C@@]2(C)[C@H]([C@H](OC(=O)c3ccccc3)[C@]3(O)C[C@H](OC(=O)[C@H](O)[C@@H](NC(=O)c4ccc(F)cc4)c4ccccc4)C(C)=C1C3(C)C)[C@]1(OC(C)=O)CO[C@@H]1C[C@@H]2O" in this assay. active

Could you check what this test reported for C[C@@H](N)C1CCC(C(=O)Nc2ccncc2)CC1 (stereo not given in full) ? inactive

What classification did "COC(=O)[C@@]1(Cc2ccccc2)[C@H]2c3cc(C(=O)N4CCCC4)n(Cc4ccc(OC)c(OC)c4)c3C[C@H]2CN1C(=O)c1ccccc1" end up with in this test? inactive

###

Would you kindly list TGI for each of these compounds?
system: SK-MEL-28 melanoma; test: NCI tumour cell line growth inhibition, 48 h
Numeric only. Scale: µM

Hello, please tell me recorded TGI for this one: "Cc1nc2c(O)cc3c4c(=O)n(C)c(=O)n(C)c4n(Cc4ccccc4)c3c2nc1C" 28

Answer with the recorded TGI of "C=CC(=O)N1C/C(=C\c2ccccc2)C(=O)/C(=C/c2ccccc2)C1" only. 3.78

Identify TGI associated with the compound "CCN(CC)CC.CCOc1ccc(NC(=O)N=C=[N-])cc1.[CH-]1CCCCC1.[CH-]1CCCCC1.[CH-]1CCCCC1.[Cl-].[Sn+4]" 0.088

Supply reported TGI belonging to this compound: "COc1cc2c(F)nccc2cc1C(=O)N[C@@H](c1ccc(F)c(Cl)c1)[C@@H]1C[C@@H](O)CN1" 20.2

###

test system: MALME-3M melanoma; test: NCI tumour cell line growth inhibition, 48 h; in the data active means GI50 below about 0.43 µM; inactive means the rest
// one of True = active, False = inactive, no free text

Short answer needed: outcome of this test for "Cc1ncc(C(=O)Nc2ccc(CN3CCN(C)CC3)c(C(F)(F)F)c2)cc1C#Cc1cnc(N)c2cnccc12" ? True

Query: recorded result category for Nc1ccccc1SC(CC(=O)c1ccccc1)c1ccc([N+](=O)[O-])cc1 (configuration not stated) in this test False

In this assay, the call recorded for "COC(=O)[C@H]1[C@@H](O)[C@@]2(O)c3c(OC)cc(O[C@@H]4O[C@@H]([C@H](O)CO)CO[C@H]4OC)cc3O[C@@]2(c2ccc(OC)cc2)[C@@H]1c1ccccc1" was what? True

Kindly provide the recorded test outcome for the following compound: "NC(=O)C1c2ccccc2C=Cc2ccccc21" False

Could you kindly confirm the outcome this assay logged for "O=C(N/N=C/c1ccccc1O)C(O)(c1ccccc1)c1ccccc1" ? False

What outcome does the record of this test show for "Fc1ccc(-c2nn3c(CNc4ccccc4)nnc3s2)cc1" ? False

Kindly provide the recorded test outcome for the following compound: "COC(=O)[C@H]1C(=O)[C@@]2(C)[C@H]([C@H](OC(=O)c3ccccc3)[C@]3(O)C[C@H](OC(=O)[C@H](O)[C@@H](NC(=O)c4ccc(F)cc4)c4ccccc4)C(C)=C1C3(C)C)[C@]1(OC(C)=O)CO[C@@H]1C[C@@H]2O" True

###

system: SK-MEL-28 melanoma; experiment: NCI tumour cell line growth inhibition, 48 h
assayEndpoint: GI50

Given "Cc1cccc(-c2nn3c(c2-c2ccnc4ccc(C(N)=O)cc24)CCC3)n1" , respond with its GI50. > 100 µM

Hello, please tell me recorded GI50 for this one: "O=C(N/N=C/c1ccccc1O)C(O)(c1ccccc1)c1ccccc1" > 100 µM

Identify GI50 associated with the compound "COc1ccccc1/C=C/C(=O)c1c(O)cc2occc2c1OC" > 100 µM

Given the compound "Fc1ccc(-c2nn3c(CNc4ccccc4)nnc3s2)cc1" , write its reported GI50. 42.2 µM

Please give measured GI50 of the following entry: "Cc1cc(C(=O)Nc2nc3cccc(Cl)c3n2[C@@H]2CCCCN(C(=O)/C=C/CN(C)C)C2)ccn1" 12.8 µM

###

test system: SW-620 colon; assay: NCI tumour cell line growth inhibition, 48 h
assayEndpoint: TGI

State its TGI: "C[C@H]1CC[C@H]([C@@H](C)[C@H]2[C@@H](O)C[C@H]3[C@@H]4CC[C@H]5C[C@@H](O)CC[C@]5(C)[C@H]4CC[C@]23C)NC1" 41.9 µM

Item "COc1cccc(NC(=O)C(C)(C)C)c1C=O" : provide TGI > 100 µM

Recall and state the measured TGI for CCOC(=O)C1(C#N)C(c2ccccc2)CC(O)(c2ccc([N+](=O)[O-])cc2)C(C(=O)c2ccc([N+](=O)[O-])cc2)C1c1ccccc1 (stereo not given) . > 100 µM

Using the record for "C[C@H]1C(=O)O[C@@H]1[C@H]1COC(C)(C)O1" , state its measured TGI. > 100 µM

State its TGI: "Nc1ccc(Oc2ccc(C3(c4ccc(Oc5ccc(N)cc5)cc4)C4CC5C6CC7CC5C3C(C7)C6C4)cc2)cc1" > 100 µM

###

Please respond with reported TGI for every item in the list.
test system: HT29 colon; test: NCI tumour cell line growth inhibition, 48 h
Your answer is read as µM, so omit the unit and give the number.

GET TGI | system: HT29 colon | item: "CC1=C(C(=O)Nc2ccccc2C)C(c2ccc(C3C(C(=O)Nc4ccccc4C)=C(C)NC(C)=C3C(=O)Nc3ccccc3C)cc2)C(C(=O)Nc2ccccc2C)=C(C)N1" 4.62

Look up and report measured TGI (HT29 colon) for the following compound: "NC(=NCCCC1(c2ccccc2)CCCC1)Nc1ccc(Cl)cc1" 3.17

Provide TGI, tested on HT29 colon, for "C=CC(=O)N1C/C(=C\c2ccccc2)C(=O)/C(=C/c2ccccc2)C1" . 2.87

GET TGI | system: HT29 colon | item: Cc1ccc2c(c1)C(C)Cc1c(ncnc1-n1cnc3cc(C)ccc31)N2C (stereo not given) 0.195

###

system: DU-145 prostate; test: NCI tumour cell line growth inhibition, 48 h
Where a SMILES comes first, the peptide text is derived from it. Bridges are numbered along the chain shown (N, C = ends). [ ]: non-standard residue; d: D form. The star is where a group is joined. PhAc = O=C(Cc1ccccc1)*
assayEndpoint: TGI

Specify reported TGI for the compound shown: "Cc1ccc2c3c(cnc2n1)C(=O)OCCN3C" > 100 µM

For the compound NC(=O)NC(=O)CCC(NS(=O)(=O)c1ccccc1)C(=O)NC(N)=O (configuration not stated) , give its reported TGI. > 100 µM

Look up and state reported TGI for O=C(Cc1ccccc1)N[C@@H]1COC(=O)[C@@H]2CCCN2C(=O)[C@@H]2CCCN2C1=O (PhAc-[dS]-Pro-Pro; ester 1-C) > 100 µM

Specify reported TGI for the compound shown: "CN(C)CCCNC(=O)c1ccc2oc3cc4ccccc4c(=O)n3c2c1" > 50 µM

For C=C[C@]1(O)CCC[C@]2(C)C(=O)CCC12C (some centres not stated) , write its TGI. > 100 µM

Give TGI for "Cc1ccc(S(=O)(=O)Oc2ccc([N+](=O)[O-])cc2[N+](=O)[O-])cc1" 23.5 µM

Answer with reported TGI of "CCCCC(C(=O)N/N=C/c1ccc([N+](=O)[O-])o1)C(=O)N/N=C/c1ccc([N+](=O)[O-])o1" 42.9 µM

Name the recorded TGI of the compound listed here: "NC(=O)/C(=C\c1ccncc1)c1cccc2ccccc12" > 100 µM

Given the compound "Cc1nc2ccccn2c1NC(=O)NNC(=S)Nc1ccc(Br)cc1" , write its reported TGI. > 100 µM

Identify the reported TGI for the following entry. C[C@@H](N)C1CCC(C(=O)Nc2ccncc2)CC1 (some centres not stated) > 100 µM

Tell me its TGI given "O=C(NCCc1ccccc1)C(c1ccccc1)(c1ccccc1)c1ccccc1" as the entry. 44.2 µM

Return reported TGI. Input compound: CC1=C(C#N)C23C(=O)c4ccccc4C(O)=C2C(=O)C=CC3(O)N1 (configuration not stated) 7.69 µM

Let me know recorded TGI for "COc1cccc(Cn2c(-c3nonc3N)nc3ccccc32)c1" , thanks. > 100 µM

Tell me TGI reported for "NC(=O)C1c2ccccc2C=Cc2ccccc21" > 100 µM

Report measured TGI; entry is CNC1C(O)C(NC)C2OC3(O)C(=O)CC(C)OC3OC2C1O (configuration not stated) > 100 µM

Name the recorded TGI of the item "COc1c2c3ccccc3nc-2n(C)c2ccccc12" in your answer. 45.5 µM

Respond only with TGI recorded for NC1OC(COC(=O)c2ccccc2)C(O)C(OC(=O)c2ccccc2)C1OC(=O)c1ccccc1 (configuration not stated) > 100 µM

Give recorded TGI. "COc1cc2c(c(OC)c1O)-c1ccc(OC)c(=O)cc1[C@@H](NC(=O)C(F)(F)F)CC2" > 100 µM

Determine its reported TGI: "COc1cccc(C(=O)Nc2c3ccccc3nc3ccccc23)c1OC" > 100 µM

Please look at this compound and report its TGI: "CCc1n[nH]c(=O)n1N1C(=O)CCC1=O" > 100 µM

Provide measured TGI value, entry: "CCOC(=O)CC(=O)C(=O)NNC1=NCCN1" > 100 µM

Return the recorded TGI value; entry: CCN(CC)CCCC(C)Nc1cc(-c2ccc(C(F)(F)F)cc2)c(C#N)c2nc3ccccc3n12 (configuration not stated) 11.4 µM
